Let's look at some compounds and their measured Relative IC50.
Assay Summary: Inhibition of LPS-induced mouse B-lymphocyte proliferation. The result is expressed as relative IC50 i.e., IC50 of compound/all-trans retinoic acid IC50.
Assay type: functional
Recorded Metric: Relative IC50

[[record]]
smi = "O=C(O)c1ccc(-c2ccc(-c3cc4cccc(Cl)c4o3)[nH]2)c(F)c1"
recorded_result = 95

[[record]]
smi = "Cc1ccc(C)c2oc(-c3ccc(-c4ccc(C(=O)O)cc4F)[nH]3)cc12"
recorded_result = 15

[[record]]
smi = "O=C(O)c1ccc(-c2ccc(-c3cc4cccc(Cl)c4o3)[nH]2)c(Br)c1"
recorded_result = 31

[[record]]
smi = "CCCc1cccc2cc(-c3ccc(-c4ccc(C(=O)O)s4)[nH]3)sc12"
recorded_result = 600

[[record]]
smi = "Cc1ccc(C)c2oc(-c3ccc(-c4ccc(C(=O)O)s4)[nH]3)cc12"
recorded_result = 42

[[record]]
smi = "COc1cc(C(=O)O)ccc1-c1ccc(-c2cc3c(Cl)ccc(Cl)c3o2)[nH]1"
recorded_result = 210

[[record]]
smi = "Cc1ccc(Cl)c2sc(-c3ccc(-c4ccc(C(=O)O)s4)[nH]3)cc12"
recorded_result = 480

[[record]]
smi = "Cc1ccc(C)c2oc(-c3ccc(-c4cccc(C(=O)O)c4)[nH]3)cc12"
recorded_result = 2100

[[record]]
smi = "Cc1ccc(C)c2oc(-c3ccc(-c4ccc(C(=O)O)cc4Br)[nH]3)cc12"
recorded_result = 18

[[record]]
smi = "Cc1ccc(C)c2oc(-c3ccc(-c4ccc(C(=O)O)cc4Cl)[nH]3)cc12"
recorded_result = 23


====

Assay Summary: Inhibition of LPS-induced mouse B-lymphocyte proliferation in relation to IC50 of all-trans retinoic acid.
Assay type: functional
Let's look at some compounds and their measured Relative IC50.
Recorded Metric: Relative IC50

[[record]]
smi = "CCc1ccc(OC)c2cc(-c3ccc(-c4ccc(C(=O)O)s4)[nH]3)oc12"
recorded_result = ">1000"

[[record]]
smi = "O=C(O)c1ccc(-c2ccc(-c3cc4cc(Cl)ccc4o3)[nH]2)o1"
recorded_result = ">1000"

[[record]]
smi = "Cc1cc(C)c2oc(-c3ccc(-c4ccc(C(=O)O)o4)[nH]3)cc2c1C"
recorded_result = ">1000"

[[record]]
smi = "Cc1cc(-c2ccc(-c3cc4c(C)c(C)cc(C)c4o3)[nH]2)c(C)cc1C(=O)O"
recorded_result = ">1000"

[[record]]
smi = "CCCc1cccc2cc(-c3ccc(-c4ccc5cc(C(=O)O)ccc5c4)[nH]3)oc12"
recorded_result = ">1000"

[[record]]
smi = "CCCc1ccc(OC)c2cc(-c3ccc(-c4ccc(C(=O)O)o4)[nH]3)oc12"
recorded_result = ">1000"

[[record]]
smi = "CCCc1ccc(OC)c2cc(-c3ccc(-c4cc(C)c(C(=O)O)cc4C)[nH]3)oc12"
recorded_result = ">1000"

[[record]]
smi = "CCc1ccc(OC)c2cc(-c3ccc(-c4ccc(C(=O)O)c5ccccc45)[nH]3)oc12"
recorded_result = ">1000"

[[record]]
smi = "Cc1cc(C)c2oc(-c3ccc(-c4ccc(C(=O)O)c5ccccc45)[nH]3)cc2c1C"
recorded_result = ">1000"


====

Assay Summary: Inhibition of LPS-induced mouse B-lymphocyte proliferation. The result is expressed as relative IC50 i.e., IC50 of compound/all-trans retinoic acid IC50.
Format: functional
Returns true if the recorded Relative IC50 is greater than or equal to 100, and false otherwise.

[[record]]
molecule = "O=C(O)c1ccc(-c2ccc(-c3cc4ccc5ccccc5c4o3)[nH]2)c(Br)c1"
category_label = "true"

[[record]]
molecule = "O=C(O)c1ccc(-c2ccc(-c3cc4cccc(Cl)c4o3)[nH]2)c(Cl)c1"
category_label = "true"

[[record]]
molecule = "O=C(O)c1ccc(-c2ccc(-c3cc4c(Cl)ccc(Cl)c4o3)[nH]2)c(Cl)c1"
category_label = "true"

[[record]]
molecule = "O=C(O)c1ccc(-c2ccc(-c3cc4c(Cl)ccc(Cl)c4o3)[nH]2)s1"
category_label = "false"

[[record]]
molecule = "COc1cc(C(=O)O)ccc1-c1ccc(-c2cc3c(C)ccc(C)c3o2)[nH]1"
category_label = "false"

[[record]]
molecule = "O=C(O)c1ccc(-c2ccc(-c3cc4c(Cl)ccc(Cl)c4o3)[nH]2)c(Br)c1"
category_label = "false"

[[record]]
molecule = "CC1=C(/C=C/C(C)=C/C=C/C(C)=C/C(=O)O)C(C)(C)CCC1 [TRETINOIN]"
category_label = "false"

[[record]]
molecule = "Cc1cc(C)c2oc(-c3ccc(-c4ccc(C(=O)O)cc4Br)[nH]3)cc2c1C"
category_label = "false"

[[record]]
molecule = "COc1cc(C(=O)O)ccc1-c1ccc(-c2cc3cccc(Cl)c3o2)[nH]1"
category_label = "true"

[[record]]
molecule = "O=C(O)c1ccc(-c2ccc(-c3cc4c(Cl)ccc(Cl)c4o3)[nH]2)c(F)c1"
category_label = "false"

[[record]]
molecule = "CCc1ccc(OC)c2cc(-c3ccc(-c4ccc(C(=O)O)cc4Br)[nH]3)oc12"
category_label = "true"

